TESTED TARGET: human Y2 receptor (human) (UniProt P49146)
Sequence (P49146 whole entry): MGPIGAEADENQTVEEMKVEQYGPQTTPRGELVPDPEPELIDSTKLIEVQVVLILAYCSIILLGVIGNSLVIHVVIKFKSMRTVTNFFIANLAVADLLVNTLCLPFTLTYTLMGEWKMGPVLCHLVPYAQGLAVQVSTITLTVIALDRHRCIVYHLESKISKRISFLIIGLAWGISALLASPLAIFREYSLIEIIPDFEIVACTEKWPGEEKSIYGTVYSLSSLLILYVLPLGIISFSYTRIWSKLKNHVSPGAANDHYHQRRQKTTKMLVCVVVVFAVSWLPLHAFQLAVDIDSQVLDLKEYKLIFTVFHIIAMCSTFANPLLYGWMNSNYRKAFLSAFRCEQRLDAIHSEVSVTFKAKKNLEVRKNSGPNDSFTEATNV
ASSAY PROCEDURE: RBA: displacement of [125I]-PYY from hY2R/CHO membranes
Non-standard residues stand in square brackets, D forms with d. *: point of attachment. X3 = ((1S)-1-Carboxy-2-hydroxyethyl)carbamoyl, O=C(O)[C@H](CO)NC(=O)*; X10 = Tetrahydro‑2H‑pyran‑4‑yl‑carbamoyl, O=C(NC1CCOCC1)*; (2-carboxyethyl)carbamoyl = O=C(O)CCNC(=O)*; Arg(Me) = CNC(=N)NCCC[C@H](N)C(=O)O; 4Pal = N[C@@H](Cc1ccncc1)C(=O)O; Cha = N[C@@H](CC1CCCCC1)C(=O)O; Iva = CC[C@](C)(N)C(=O)O; Aib = CC(C)(N)C(=O)O
Hi there, I'd appreciate the recorded IC50 Ratio (IC50 compound/IC50 PYY(3-36)) for every entry that follows.
Numbers only.

>  <BINDER>
Ac-S[dP][Arg(Me)]H[Cha][Aib]NK[Aib]TRQR[Cha]-NH2 (SMILES CNC(=N)NCCC[C@H](NC(=O)[C@H]1CCCN1C(=O)[C@H](CO)NC(C)=O)C(=O)N[C@@H](Cc1c[nH]cn1)C(=O)N[C@@H](CC1CCCCC1)C(=O)NC(C)(C)C(=O)N[C@@H](CC(N)=O)C(=O)N[C@@H](CCCCN)C(=O)NC(C)(C)C(=O)N[C@H](C(=O)N[C@@H](CCCNC(=N)N)C(=O)N[C@@H](CCC(N)=O)C(=O)N[C@@H](CCCNC(=N)N)C(=O)N[C@@H](CC1CCCCC1)C(N)=O)[C@@H](C)O) [Ac-[D-Pro24, Arg(Me)25, Cha27,36, Aib28,31, Lys30]-PYY(23-36)]

>  <RECORDED MEASUREMENT>
1.8

$$$$

Hi there! I need IC50 Ratio (IC50 compound/IC50 PYY(3-36)) for each item below, if you can.
1. X3-S[dP][Iva][4Pal][Cha][Aib]NK[Aib]TRQR[Cha]-NH2 (SMILES CC[C@](C)(NC(=O)[C@H]1CCCN1C(=O)[C@H](CO)NC(=O)N[C@@H](CO)C(=O)O)C(=O)N[C@@H](Cc1ccncc1)C(=O)N[C@@H](CC1CCCCC1)C(=O)NC(C)(C)C(=O)N[C@@H](CC(N)=O)C(=O)N[C@@H](CCCCN)C(=O)NC(C)(C)C(=O)N[C@H](C(=O)N[C@@H](CCCNC(=N)N)C(=O)N[C@@H](CCC(N)=O)C(=O)N[C@@H](CCCNC(=N)N)C(=O)N[C@@H](CC1CCCCC1)C(N)=O)[C@@H](C)O)
2. {(2-carboxyethyl)carbamoyl}-S[dP][Iva][4Pal][Cha][Aib]NK[Aib]TRQR[Cha]-NH2 (SMILES CC[C@](C)(NC(=O)[C@H]1CCCN1C(=O)[C@H](CO)NC(=O)NCCC(=O)O)C(=O)N[C@@H](Cc1ccncc1)C(=O)N[C@@H](CC1CCCCC1)C(=O)NC(C)(C)C(=O)N[C@@H](CC(N)=O)C(=O)N[C@@H](CCCCN)C(=O)NC(C)(C)C(=O)N[C@H](C(=O)N[C@@H](CCCNC(=N)N)C(=O)N[C@@H](CCC(N)=O)C(=O)N[C@@H](CCCNC(=N)N)C(=O)N[C@@H](CC1CCCCC1)C(N)=O)[C@@H](C)O) [(2-Carboxyethyl)carbamoyl-[D-Pro24, Iva25, Pya(4)26, Cha27,36, Aib28,31, Lys30]-PYY(23-36)]
3. Ac-E[dP]R[4Pal][Cha][Aib]NK[Aib]TRQR[Cha]-NH2 (SMILES CC(=O)N[C@@H](CCC(=O)O)C(=O)N1CCC[C@@H]1C(=O)N[C@@H](CCCNC(=N)N)C(=O)N[C@@H](Cc1ccncc1)C(=O)N[C@@H](CC1CCCCC1)C(=O)NC(C)(C)C(=O)N[C@@H](CC(N)=O)C(=O)N[C@@H](CCCCN)C(=O)NC(C)(C)C(=O)N[C@H](C(=O)N[C@@H](CCCNC(=N)N)C(=O)N[C@@H](CCC(N)=O)C(=O)N[C@@H](CCCNC(=N)N)C(=O)N[C@@H](CC1CCCCC1)C(N)=O)[C@@H](C)O) [Ac-[Glu23, D-Pro24, Pya(4)26, Cha27,36, Aib28,31, Lys30]-PYY(23-36)]
4. X10-E[dP]R[4Pal][Cha][Aib]NK[Aib]TRQR[Cha]-NH2 (SMILES C[C@@H](O)[C@H](NC(=O)C(C)(C)NC(=O)[C@H](CCCCN)NC(=O)[C@H](CC(N)=O)NC(=O)C(C)(C)NC(=O)[C@H](CC1CCCCC1)NC(=O)[C@H](Cc1ccncc1)NC(=O)[C@H](CCCNC(=N)N)NC(=O)[C@H]1CCCN1C(=O)[C@H](CCC(=O)O)NC(=O)NC1CCOCC1)C(=O)N[C@@H](CCCNC(=N)N)C(=O)N[C@@H](CCC(N)=O)C(=O)N[C@@H](CCCNC(=N)N)C(=O)N[C@@H](CC1CCCCC1)C(N)=O) [Tetrahydro-2H-pyran-4-yl-carbamoyl-[Glu23, D-Pro24, Pya(4)26, Cha27,36, Aib28,31, Lys30]-PYY(23-36)]

1. 3.5
2. 3.2
3. 2.7
4. 1.1
